Let's look at some molecules and their measured Relative retention time, standing time 9.
RUN_DESCRIPTION: GC fingerprint: study on the sample stability
Assay type: physicochemical
CONDITION_CONTEXT: Semen Ziziphi Spinosae oil sample 2 test solution, tested at 9 h, GC
A bare number is all that is needed in reply.

CCCCCCCCCCCCCCCCCCCC(=O)OC [Peak 8] | 1.306
CCCCCCCC/C=C\CCCCCCCC(=O)OC [Peak s] | 1.000
CCCCCCCCCCCCCCCCCCCCCC(=O)OC [Peak 11] | 1.651

Task item: // query Relative retention time, standing time 9 value for entry CC/C=C\C/C=C\C/C=C\CCCCCCCC(=O)OC [Peak 5]
Reply: 1.183
